assay: Hemolytic activity in human RBC assessed as hemolysis at 1000 ug/ml incubated for 1 hr by absorbance based analysis; format: toxicity, cell-based, Erythrocyte; conditions: red blood cells (RBC), at 1000 µg/mL, read-out: Activity
value-type: hemolysis at 1 h, 1000 ug/ml

1) O=[N+]([O-])c1ccccc1/C=N/CCNc1ccnc2cc(Cl)ccc12 :: < 20%

----------
Reported fractional inhibitory concentration index (FICI) values follow for various compounds
system: Escherichia coli; test: Synergistic antibacterial activity against Escherichia coli MTCC 443 assessed as fractional inhibitory concentration index incubated overnight in presence of ciprofloxacin by microdilution checkerboard assay; format: functional
value-type: fractional inhibitory concentration index (FICI)

1. O=C1Nc2cc(Cl)ccc2/C1=N/CCNc1ccnc2cc(Cl)ccc12 :: 0.125
2. O=C1Nc2ccc(Cl)cc2/C1=N/CCNc1ccnc2cc(Cl)ccc12 :: 0.249
3. Fc1ccc(/C=N/CCNc2ccnc3cc(Cl)ccc23)cc1 :: 0.37
4. O=[N+]([O-])c1ccccc1/C=N/CCNc1ccnc2cc(Cl)ccc12 :: 0.124
5. Clc1ccc2c(NCC/N=C/c3ccc4ccccc4n3)ccnc2c1 :: 0.281

----------
experiment: Hemolytic activity in human RBC assessed as hemolysis upto 500 ug/ml incubated for 1 hr by absorbance based analysis; type: toxicity, cell-based, Erythrocyte; settings: red blood cells (RBC), up to 500 µg/mL, read-out: Activity
value-type: hemolysis at 1 h

1) O=[N+]([O-])c1ccccc1/C=N/CCNc1ccnc2cc(Cl)ccc12 :: < 10%

----------
system: Salmonella typhi; assay: Antibacterial activity against Salmonella typhi assessed as diameter of zone of inhibition at 0.5 times MIC incubated overnight by disk diffusion method; assay type: functional, Salmonella enterica subsp. enterica serovar Typhi
Reported values of diameter of the inhibition zone (DIZ) for individual entries
value-type: diameter of the inhibition zone (DIZ) (mm)

1) O=[N+]([O-])c1ccccc1/C=N/CCNc1ccnc2cc(Cl)ccc12 :: 6
2) O=C1Nc2ccc(Cl)cc2/C1=N/CCNc1ccnc2cc(Cl)ccc12 :: 13
3) Clc1ccc2c(NCC/N=C/c3ccc4ccccc4n3)ccnc2c1 :: 9
4) Fc1ccc(/C=N/CCNc2ccnc3cc(Cl)ccc23)cc1 :: 10

----------
Recorded measurements of zone of inhibition at 500 µg/mL, one per entry
system: Escherichia coli; assay: Antibacterial activity against Escherichia coli MTCC 443 assessed as diameter of zone of inhibition at 500 ug/ml by agar disk diffusion method; type: functional; conditions: read-out: DIZ
value-type: zone of inhibition at 500 µg/mL (mm)

1. COc1ccc2c(c1)NC(=O)/C2=N\CCNc1ccnc2cc(Cl)ccc12 :: 16
2. O=[N+]([O-])c1cccc(/C=N/CCNc2ccnc3cc(Cl)ccc23)c1 :: 9
3. Cc1cc(C)c2c(c1)/C(=N/CCNc1ccnc3cc(Cl)ccc13)C(=O)N2 :: 11
4. Clc1ccc2c(NCC/N=C/c3ccccn3)ccnc2c1 :: 11
5. Clc1ccc2c(NCC/N=C/c3ccccc3Cl)ccnc2c1 :: 8

----------
# fractional inhibitory concentration index (FICI) values compiled below
tested on: Enterococcus faecalis; experiment: Synergistic antibacterial activity against Enterococcus faecalis MTCC 439 assessed as fractional inhibitory concentration index incubated overnight in presence of ciprofloxacin by microdilution checkerboard assay; format: functional
value-type: fractional inhibitory concentration index (FICI)

1) Clc1ccc2c(NCC/N=C/c3ccc4ccccc4n3)ccnc2c1 :: 0.312
2) O=[N+]([O-])c1ccccc1/C=N/CCNc1ccnc2cc(Cl)ccc12 :: 0.265
3) Fc1ccc(/C=N/CCNc2ccnc3cc(Cl)ccc23)cc1 :: 1.5
4) O=C1Nc2ccc(Cl)cc2/C1=N/CCNc1ccnc2cc(Cl)ccc12 :: 1.125
